- Assay Comment: self-splicing fitness, log relative to wild type (ln ratio); higher = more splicing; Tetrahymena group I intron in knt gene, E. coli kanamycin selection, DiMSum; sequences stand for … in CUCUCU…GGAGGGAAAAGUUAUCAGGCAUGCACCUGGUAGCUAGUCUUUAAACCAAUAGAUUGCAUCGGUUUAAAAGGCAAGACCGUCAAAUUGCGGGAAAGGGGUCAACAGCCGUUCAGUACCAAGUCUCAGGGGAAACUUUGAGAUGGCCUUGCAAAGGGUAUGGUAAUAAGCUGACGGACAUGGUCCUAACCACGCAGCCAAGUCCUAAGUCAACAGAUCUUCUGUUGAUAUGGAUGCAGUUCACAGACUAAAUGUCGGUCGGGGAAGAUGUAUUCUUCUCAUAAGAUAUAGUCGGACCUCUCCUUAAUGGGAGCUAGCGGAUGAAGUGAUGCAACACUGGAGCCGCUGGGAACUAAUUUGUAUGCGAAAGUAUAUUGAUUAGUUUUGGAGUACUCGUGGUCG;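 further: selection with 25 µg/mL kanamycin versus none on LB agar overnight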
- Condition Description: 37 °C
Given measured self-splicing fitness (ln), output Fulfilled if it is greater than or equal to -2 and Not fulfilled if not.

Example results:
Prompt: API: above_or_equal(metric=self-splicing fitness (ln), cutoff=-2) for item UAAGAGCAAUAUUACGAAUC
Completion: Fulfilled

Prompt: hey, is self-splicing fitness (ln) for this one >= -2? CCCCAGCAAUAUUACGAGGG
Completion: Not fulfilled

Prompt: API: above_or_equal(metric=self-splicing fitness (ln), cutoff=-2) for item GUGCAGCAAUAUUACGUUUA
Completion: Fulfilled

Prompt: // inclusive: self-splicing fitness (ln) at least -2? input: CCCCAGCAAUAUUACGCCUC
Completion: Fulfilled

Prompt: Answer whether self-splicing fitness (ln) of UUAAAGCAAUAUUACGUAGC is greater than or equal to -2.
Completion: Not fulfilled

Prompt: Quick check, self-splicing fitness (ln) >= -2? GACAAGCAAUAUUACGUUGG
Completion: Not fulfilled

Prompt: Could you please find out whether CCAAAGCAAUAUUACGACGU has self-splicing fitness (ln) that meets -2 or exceeds it?
Completion: Not fulfilled

Prompt: Say whether GCUCAGCAAUAUUACGAAUU shows self-splicing fitness (ln) of -2 or more.
Completion: Fulfilled

***
Prompt: Hi, just wondering whether CGGUAGCAAUAUUACGAAGA shows self-splicing fitness (ln) of -2 or higher.
Completion: Not fulfilled

Prompt: Would you say UGUCAGCAAUAUUACGAAAA shows self-splicing fitness (ln) at minimum -2?
Completion: Fulfilled

Prompt: Please tell me: is the sequence GAACAGCAAUAUUACGCGUU at or over -2 in terms of self-splicing fitness (ln)?
Completion: Not fulfilled

Prompt: Entry GUUGAGCAAUAUUACGAACU : is its self-splicing fitness (ln) no less than -2?
Completion: Fulfilled

Prompt: Is reported self-splicing fitness (ln) greater than or equal to -2 here: UCUCAGCAAUAUUACGCGGA
Completion: Not fulfilled
